- Tested on: Ruminococcus gnavus DSM 108212
- test method notes: growth (OD595) fold change vs plate DMSO controls (fold change (ratio)); higher = more growth
- measurement conditions: incubation time: 27 h, anaerobic, 37 °C
Structures can show the parent of a compound that is named as a salt.
growth values, listed per item
assay metric: growth

compound="O=C(Nc1ccccc1)OCC(CN1CCCCC1)OC(=O)Nc1ccccc1 (stereo not drawn) [Diperodon hydrochloride] (20 µM)" readout_value=0.942
compound="CN1CC2c3ccccc3Oc3ccc(Cl)cc3C2C1 (stereo not drawn) [Asenapine maleate] (20 µM)" readout_value=0.834
compound="Cc1ccc(O)c([C@H](CCN(C(C)C)C(C)C)c2ccccc2)c1 [Tolterodine tartrate] (20 µM)" readout_value=1.14
